Provide the reported apparent Kd of each item.
System: MS2 coat protein
Assay: apparent Kd, MS2 coat protein; higher = weaker binding; RNA-MaP array; theophylline 2 mM where present
Settings: ligand present: theophylline; designed as: OFF switch for theophylline
One number for each entry, in nM.

Here is how some sequences turned out for apparent Kd.
>  <input sequence>
CAGAGCUACCGGGAUACCAGAAUUGGUAUUCCUAUAUUUCUUACAUGAGGAUCACCCAUGUUCCCUUGGCAGCUUGGUAGCUCUG

>  <subject of test>
MS2 coat protein

>  <apparent Kd (nM)>
446

$$$$
>  <input sequence>
AGACAUGAGGAUCACCCAUGUAGUACGGAUACCAGAUCCAGAUGCGUCCCUUGGCAGCUGUAGUACAGCGUUACGUCGCUCAUAG

>  <subject of test>
MS2 coat protein

>  <apparent Kd (nM)>
61

$$$$
>  <input sequence>
AGGAACAUGAGGAUCACCCAUGUAAGCGAUACCAGUGAUAUGUUGCGCCCUUGGCAGCGCAAGUGUGUGUGAAAGAUGUAAGAUU

>  <subject of test>
MS2 coat protein

>  <apparent Kd (nM)>
33.4

$$$$
>  <input sequence>
UAUAUAUAUAUUGAUACCAGCAGAGAAAACGUUUAUCCUAACAUGAGGAUCACCCAUGUAUGCCCUUGGCAGCGAUAUAUAUAUA

>  <subject of test>
MS2 coat protein

>  <apparent Kd (nM)>
32.5

$$$$
>  <input sequence>
GUUACAUGGCAAGCAUGUAUAUGGAUAGAUACCAGUUGAUAUUAAGACCCUUGGCAGCUGAGUACAUGAGGAUCACCCAUGUAAG

>  <subject of test>
MS2 coat protein

>  <apparent Kd (nM)>
90.8

$$$$

For every item in the list below, what is its measured apparent Kd?
1. AGCCCUGUACUAGAUACCAGCUACAUGAGGAUCACCCAUGUGCGUCAAGACUGACUGUGUAGCCCUUGGCAGCUGCUCGCAUGUA
2. GAUGAACUAUUCGAUACCAGACUACAUGAGGAUCACCCAUGUGUGUCAAUUUCUCAGUCAGUCCCUUGGCAGCGAAUAGUUUAUC
3. AGAAUAACACAUGAGGAUCACCCAUGUGAUACCAGCUAGGAAACUAGCCCUUGGCAGCACAUAAUCCUCAUGAGCUGCCAUAAUA
4. AUAUGAAAGAGUGAUACCAGACUACAUGAGGAUCACCCAUGUGACAUUUAAAUAUCAUUUGUCCCUUGGCAGCACAUUAAGUACA

[32.2, 54.3, 21.4, 44.9]

* * *

System: MS2 coat protein
Experiment: apparent Kd, MS2 coat protein; higher = weaker binding; RNA-MaP array; FMN 200 µM where present
Conditions: ligand present: flavin mononucleotide; designed as: ON switch for flavin mononucleotide
property measured: apparent Kd
Please don't drop the unit; write it after the number.

Example cases with answers are listed next.
>  <input sequence>
CGGCGCUGUUGAGAGGAUAUGCGGUGAUGGACAUGAGGAUCACCCAUGUUAGCGAUAGCAUUACGGUAGAAGGCUCUACAGCUGC

>  <measurement>
14.1 nM

$$$$
>  <input sequence>
GUAUCAUACCAAGGAUAUUUAGGACUUGUAUAGACAUGAGGAUCACCCAUGUGGCGUUAGUCACGGGAGAAGGUGGUAUGAUAC

>  <measurement>
17.5 nM

$$$$
>  <input sequence>
UGGUACUAGGGAGGAUAUGGGAAGAUACAUGAGGAUCACCCAUGUUUAAGAAUGCCGAGCGGCAACUAGAAGGCCCUAGUACCU

>  <measurement>
20.8 nM

$$$$
>  <input sequence>
GCGCUUAUACAGAAGGCCAUAUACAUGAGGAUCACCCAUGUUACAUGGUGGAGGAUAUGUUAUUAAGUACAGGUAGAUGAGCGC

>  <measurement>
5.38 nM

$$$$
>  <input sequence>
ACCAGGGAUUCAGGAUAUAUUAGCCGAGGCCGCGUAGAAGGGAAAUCCUGACAUGAGGAUCACCCAUGUCGACCCGCCUUCCAC

>  <measurement>
24.2 nM

$$$$

Field: apparent Kd. Fill in for each record below.
1. UGUUGUAUUACAGGAUAUCUAUUAGUAUUAUUUAGAGAAGGGUAUUCACAUGAGGAUCACCCAUGUAUAUACGAGGAAGUUGUG
2. AAUAACGGAGCUACAUGAGGAUCACCCAUGUACGGGUGAUCCUAGGAUAUGCCCGCAACUAUGUCGCAGAAGGAGGGUUGCCCA
3. UAUUGAUAAUAUUUUCACAUGAGGAUCACCCAUGUCGCUCGACAGGAUAUAUUUUAUUUGUUUAAGUAGAAGGGUCGCAGAUUU
4. UUGGACGUCGUAGGAUAUGUAGGAUACUCCUACAUGAGGAUCACCCAUGUUGACAUGGAGGACGGACAGAAGGACGGUGUCCAU
5. AGAGAGAGACAGAAGGGCAAGCUCGAUUGCGGAGAAAGCGAUCGAGCUUGCAGGAUAUGUUGAACAUGAGGAUCACCCAUGUCA

["48.4 nM", "39.7 nM", "109 nM", "5.72 nM", "7.62 nM"]

// each listed sequence needs a value for apparent Kd
1. GGUCCAUUAUGAGGAUAUGGCACCUUAUUGGUGCCAGAAGGCAUGUCUAUAGACAUGAGGAUCACCCAUGUAUUAAUUUGGACC
2. UGUUGUAUUACAGGAUAUCUAUGAUUUUUAUAUAGAGAAGGGUAUUCACAUGAGGAUCACCCAUGUAUAUACGAGGAAGUUGUG
3. UUGGACGUCGUAGGAUAUGUAGGAUAUUCCAACAUGAGGAUCACCCAUGUUGACAUGGAAGAAGGACAGAAGGACGAUGUCCAU
4. CCUAAGGACACAGGAUAUAGCGUGGUGGGUGGGCUCCAACGACGAGCGGCGCUAGAAGGGUGACCACAUGAGGAUCACCCAUGU

41.4 nM
56 nM
3.63 nM
205 nM

* * *

Tested on: MS2 coat protein
Experiment: apparent Kd, MS2 coat protein; higher = weaker binding; RNA-MaP array; FMN 200 µM where present
Settings: designed as: ON switch for flavin mononucleotide; no ligand
property measured: apparent Kd

Sample answers from the record:
>  <input sequence>
GUAGCAUACAGAGGAUAUUCAAACCGGAAACGGAACAUGAGGAUCACCCAUGUGGCGAAAGCCAGGGAGAAGGCUGAAUGCUAC

>  <apparent Kd>
44.5 nM

$$$$
>  <input sequence>
UUAACAUGAGGAUCACCCAUGUAUAGAUCGGUUAAUAGAAGUGAGGAUAUGCUUAAAAUAAGGUAGCAGAAGGCACUGGGUACU

>  <apparent Kd>
24.2 nM

$$$$
>  <input sequence>
GCAUUGAUAACAGGAUAUAUGUAUCCUACAUGAGGAUCACCCAUGUAGGUGAUCAGCCGCGAUAAGUAGAAGGGUUAUCAAUGC

>  <apparent Kd>
18 nM

$$$$
>  <input sequence>
UGUUGUAUUACAGGAUAUCUAUGAUUUUUAUAUAGAGAAGGGUAUUCACAUGAGGAUCACCCAUGUAUAUACGAGGAAGUUGUG

>  <apparent Kd>
49 nM

$$$$
>  <input sequence>
GGGAUCAUCGGAGGAUAUCAUGUAGAUACAUGAGGAUCACCCAUGUCGAUGGAGACAUCGGAGAUUGAGAAGGCCGAUGAUCCG

>  <apparent Kd>
741 nM

$$$$

Would you mind listing apparent Kd for each of the following sequences?
1. CGCUACGUUUCGUAGCAGCUAGGUGAGGAUAUUCAAUUUUUCACAUGAGGAUCACCCAUGUAUGUGAAGAAGGCGCCUAGAAAU
2. GUGUACAUUCGAGGAUAUCGGAGAGAGAUCAUUCGAGAAGGCGAUUCAUGAUGUAUUAUCCUGGACAUGAGGAUCACCCAUGUG

1: 10.7 nM; 2: 109 nM

* * *

Tested on: MS2 coat protein
Test: apparent Kd, MS2 coat protein; higher = weaker binding; RNA-MaP array; FMN 200 µM where present
Settings: ligand present: flavin mononucleotide; designed as: OFF switch for flavin mononucleotide
For each of the sequences below, state its apparent Kd.
Numbers only, in µM.

Use the examples below as a reference point.
>  <input sequence>
CGCUAGCGAAUAGUAAUAAAAGUACAGGAUAUGUUACAUGAGGAUCACCCAUGUAUUGGGUAAGAACAGAAGGGUACGCUAGCG

>  <measurement>
0.0978

$$$$
>  <input sequence>
CGCUAGUCAGGAUAUACGAACAUGUCAAAAGACGUGAAGGGACAUGAGGAUCACCCAUGUAGAAGGGACUAGCC

>  <measurement>
0.115

$$$$
>  <input sequence>
GUAGCUAGUACAGGAUAUUAGUGCGUGUAGUAUUGAGAAGGGUACAUGAGGAUCACCCAUGUGAUCAAUCACUGUUAAGGUUGC

>  <measurement>
0.177

$$$$
>  <input sequence>
ACACUCUAUGCAGGAUAUCGAGCCUGGGCCUUGUUUUUUGUAAACAUGAGGAUCACCCAUGUCUUCGAGAAGGGCAUAACACCG

>  <measurement>
0.136

$$$$
>  <input sequence>
UUUUUGUGAGGAUAUCAGUAGUAAAUAAAUAAAAUAACUACUGAGAAGGCACAUGAGGAUCACCCAUGUUCUUU

>  <measurement>
0.0496

$$$$

// for each sequence below, give its apparent Kd
1. UAAACGUUCUAGAAGGUGCUUUUGUUAAACAAGCAAGGAUAUAGACAUGAGGAUCACCCAUGUCUUUGUGACAUCGACAUACUU
2. CAUUGACAUGAGGAUCACCCAUGUCAGGAUAUGCUUCAUGACACGAAAGUGUCAUGAAGCAGAAGGGACAUGCC
3. GUAUAUAGUGUGAGGAUAUGCUGGUCCUUGGAUCAGCAGAAGGCACAUGAGGAUCACCCAUGUAGUUUAUUAUU
4. UUUUAGUCAGGAUAUCGUUAAUUUAAUUGUUUGUAUUAGUUCGAGAAGGGACAUGAGGAUCACCCAUGUAUUUU
5. GAUAAAGGAGUAGGAUAUGCACAUGGUAGGCUUAUCUUUAUGGCGACAUGAGGAUCACCCAUGUUGCAGAAGGGCUUCCCAUUG
6. UGUCAUAAAUAGAAGGGUAGUUGGGUUUUACAUGAGGAUCACCCAUGUAUUAUAGGAUAUGUGUAAAGUUAUUAUUAAAGUAAA
7. GCUGACGAUGUAGGAUAUCUCGACGAUAAGUCGAGAGAAGGACAUGAGGAUCACCCAUGUACUCUAACGUCAGCGAGGAAACUC

1: 0.0112; 2: 0.0318; 3: 0.0803; 4: 0.043; 5: 0.0259; 6: 0.0345; 7: 0.0185

For each listed entry, give its apparent Kd.
1. CGCAAGUCAGGAUAUUCGACAGGUAAAUCAGUGGAUCAGAAGGAGAAGGGACAUGAGGAUCACCCAUGUAAGUA
2. GGUGUGAGGCAGGAUAUGCUAUAUGUAAGUAAUGCAGAAGGGUCUACAUGAGGAUCACCCAUGUGUGCGGUAGA
3. CCAUGGCAUGUAGGAUAUAUCUGACAAAGUCAGAUAGAAGGACAUGAGGAUCACCCAUGUAAACCGAAAGGAACAUAGCCAUGG
4. AAUAUGAGCUGGAAUAACCUCAAAACAUGAGGAUCACCCAUGUAGGAUAUCAGCACGAUAAGUGCUGAGAAGGACAACCAGCUC

[0.0294, 0.311, 0.00696, 0.0181]

For every record below, what is its apparent Kd?
1. CUCGCAGUAAUAGGAUAUCCACAUCCGUGGCCUGUGUGUGACUUAACAUGAGGAUCACCCAUGUUGGAGAAGGAUUACUCAAUA
2. CCUCAUAUUUAGGAUAUGAUUGGUAAUUAUUAGUUAGAAGGAGGUACAUGAGGAUCACCCAUGUAAUAUUUAAA
3. ACGUAUCGUGUAGGAUAUGACACAGGAAACUGGUCAGAAGGACAUGAGGAUCACCCAUGUAGAGUAUGUUAGGAUGACGUAUGC
4. CGAGCUGCUGUGAGGAUAUACCUAUGGAUGCGUGGGUAGAAGGCACAUGAGGAUCACCCAUGUCCUGCAGCUCG
5. CCAUUCAGAGGAUAUGCGCAUAGAUAAGACUUUUUUUCUUAACAUGAGGAUCACCCAUGUAGAAGGCUGUACCC
6. GAUUAACAUGAGGAUCACCCAUGUGAGGAUAUGGACUGGCUCACUUUUCGAUUCCCGUCUAGAAGGCGCAUUUU
7. UAGUAUAAGGGCAUUAAACAUGAGGAUCACCCAUGUACGAUAGAGGAUAUGCAUUUCAGUUGAGAGUAGAAGGUUAGAGAAGGG
8. CGCUAGUCAGGAUAUACGAACAUGUCAAAAGACGUGAAGGGACAUGAGGAUCACCCAUGUAGAAGGGACUAGCA

1: 0.178; 2: 0.0212; 3: 0.261; 4: 0.241; 5: 0.0194; 6: 0.0502; 7: 0.0463; 8: 0.114

Take each entry in turn and give its apparent Kd.
1. AGAAUGAUGUCAGGAUAUGACGCUGAGAGCACGUCAGAAGGGACAUGAGGAUCACCCAUGUCGGGCUAAUGAAGCUAUGGCACU
2. GGGAUGCUAGGAUAUACAUCGGGCUCCAGGAUGUUCCGGGAACAUGAGGAUCACCCAUGUAGAAGGAGCUAAAG
3. AGCUGUGGCCGAGGAUAUCACGAACCAUGGAAAACCAUGGAACUCAAACAUGAGGAUCACCCAUGUGAGAAGGCGGUCUCAGCA
4. CGCAGGAUACAGAAGGAGUUAUUGAGAGGUUUACUAGGAUAUGUUCACAUGAGGAUCACCCAUGUCAUAUGGUUUUUUAUUGCG
5. UGUACGUGAGGAUAUGGACGUAUCGAAGACAAGCUACGAUACCAGAAGGUACAUGAGGAUCACCCAUGUGGUUC

1. 0.0117
2. 0.0535
3. 0.0159
4. 0.0117
5. 0.37

Data origin: the EternaBench riboswitch data
